Reference source for all entries: paper PMC6563694

These records show pKi for UniProt:Q9Y5N1.
// pKi is dimensionless: -log10 of concentration (M)

Answered cases to consult:
Cc1ccccc1/N=N\c1cccc(Cc2c[nH]cn2)c1 [compound 76, 76 cis (PSS cis)] ... 6.40
c1ccc(/N=N\c2cccc(Cc3c[nH]cn3)c2)cc1 [compound 65, cis-65 (PSS cis)] ... 7.49
Cc1cccc(/N=N\c2cccc(Cc3c[nH]cn3)c2)c1 [compound 77, 77 cis (PSS cis)] ... 6.46
Fc1cccc(/N=N/c2cccc(Cc3c[nH]cn3)c2)c1 [compound 67, 67 trans] ... 8.35
Cc1c(Cc2c[nH]cn2)cccc1/N=N/c1ccccc1 [compound 72, 72 trans] ... 5.57

Q) Which pKi value belongs to Fc1ccccc1/N=N\c1cccc(Cc2c[nH]cn2)c1 [compound 66, 66 cis (PSS cis)] ?
A) 7.09

Q) // next record Cc1cc(Cc2c[nH]cn2)cc(/N=N/c2ccccc2)c1 [compound 74, 74 trans]
A) 5.75

---

Documented pK i trans ± SEM across a set of molecules
system: human histamine H3 receptor (hH3R) (Homo sapiens)
Sequence (Q9Y5N1 whole entry): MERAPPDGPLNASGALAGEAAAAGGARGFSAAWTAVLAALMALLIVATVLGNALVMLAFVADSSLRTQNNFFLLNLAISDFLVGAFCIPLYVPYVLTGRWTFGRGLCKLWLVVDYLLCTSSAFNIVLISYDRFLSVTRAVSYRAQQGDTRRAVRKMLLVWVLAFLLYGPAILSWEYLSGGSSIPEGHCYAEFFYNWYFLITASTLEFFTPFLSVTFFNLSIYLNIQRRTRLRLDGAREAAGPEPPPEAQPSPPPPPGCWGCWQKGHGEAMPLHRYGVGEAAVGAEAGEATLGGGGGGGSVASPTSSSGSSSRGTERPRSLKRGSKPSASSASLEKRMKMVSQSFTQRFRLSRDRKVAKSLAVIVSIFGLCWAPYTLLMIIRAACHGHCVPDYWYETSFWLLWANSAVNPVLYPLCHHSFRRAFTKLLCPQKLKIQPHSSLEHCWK
measurement.notes: [3H]-Nα-methylhistamine competition binding
assay.context: kept in dark, >99 % trans
Please state the value as a number alone, without comment.

Q) Recorded pK i trans ± SEM for Cc1ccc(/N=N/c2ccccc2)cc1Cc1c[nH]cn1 [compound 73, 73 trans] with human histamine H3 receptor (hH3R) (Homo sapiens), please?
A) 6.90

Q) // next record Cc1ccc(Cc2c[nH]cn2)cc1/N=N/c1ccccc1 [compound 75, 75 trans]
A) 7.15

Q) // next record Fc1ccc(/N=N/c2ccccc2)cc1Cc1c[nH]cn1 [compound 79, 79 trans]
A) 7.81

Q) // next record Fc1ccc(Cc2c[nH]cn2)cc1/N=N/c1ccccc1 [compound 80, 80 trans]
A) 8.39

---

These records show log10 Ki for human histamine H3 receptor (hH3R) (Homo sapiens).
Please be aware that the numbers have been log10-transformed from Ki in nM.

Cc1ccc(/N=N/c2cccc(Cc3c[nH]cn3)c2)cc1 [compound 78, 78 trans] ... 3.28

Q) Which log10 Ki value belongs to Clc1ccc(/N=N/c2cccc(Cc3c[nH]cn3)c2)cc1 [compound 71, 71 trans] ?
A) 2.24

Q) // next record Fc1cccc(F)c1/N=N/c1cccc(Cc2c[nH]cn2)c1 [compound 69, 69 trans]
A) 1.00

Q) // next record Clc1ccccc1/N=N/c1cccc(Cc2c[nH]cn2)c1 [compound 70, 70 trans]
A) 1.14

Q) // next record Cc1c(Cc2c[nH]cn2)cccc1/N=N\c1ccccc1 [compound 72, 72 cis (PSS cis)]
A) 3.55

Q) // next record Cc1cc(Cc2c[nH]cn2)cc(/N=N\c2ccccc2)c1 [compound 74, 74 cis (PSS cis)]
A) 3.87

Q) // next record Fc1ccc(/N=N\c2cccc(Cc3c[nH]cn3)c2)cc1 [compound 68, 68 cis (PSS cis)]
A) 2.49

Q) // next record Clc1ccc(/N=N\c2cccc(Cc3c[nH]cn3)c2)cc1 [compound 71, 71 cis (PSS cis)]
A) 3.02

Q) // next record Fc1ccccc1/N=N/c1cccc(Cc2c[nH]cn2)c1 [compound 66, 66 trans]
A) 0.72

Q) // next record c1ccc(/N=N/c2cccc(Cc3c[nH]cn3)c2)cc1 [compound 65, trans-65]
A) 0.58

Q) // next record Cc1ccc(/N=N\c2cccc(Cc3c[nH]cn3)c2)cc1 [compound 78, 78 cis (PSS cis)]
A) 3.29

Q) // next record Cc1ccccc1/N=N/c1cccc(Cc2c[nH]cn2)c1 [compound 76, 76 trans]
A) 1.28

Q) // next record Fc1cccc(F)c1/N=N\c1cccc(Cc2c[nH]cn2)c1 [compound 69, 69 cis (PSS cis)]
A) 1.74

Q) // next record Clc1ccccc1/N=N\c1cccc(Cc2c[nH]cn2)c1 [compound 70, 70 cis (PSS cis)]
A) 2.15
